Origin of the recorded values: patent US11903936B2

- assay name: physchem
- recorded conditions: pH 6.5, fassif
test readout: solubility (µg/mL)
Give the number; µg/mL is assumed, so skip it.

Task: Provide measured solubility value, entry: Cc1c(Cc2ccc(C(F)(F)F)nc2)c[nH]c1C(=O)NC(C)c1cnn(C)c1 (single isomer, unassigned)
Result: 60

----------
- target desc: Mouse DHODH (Mus musculus (Mouse), UniProt O35435)
- Sequence (O35435 whole entry): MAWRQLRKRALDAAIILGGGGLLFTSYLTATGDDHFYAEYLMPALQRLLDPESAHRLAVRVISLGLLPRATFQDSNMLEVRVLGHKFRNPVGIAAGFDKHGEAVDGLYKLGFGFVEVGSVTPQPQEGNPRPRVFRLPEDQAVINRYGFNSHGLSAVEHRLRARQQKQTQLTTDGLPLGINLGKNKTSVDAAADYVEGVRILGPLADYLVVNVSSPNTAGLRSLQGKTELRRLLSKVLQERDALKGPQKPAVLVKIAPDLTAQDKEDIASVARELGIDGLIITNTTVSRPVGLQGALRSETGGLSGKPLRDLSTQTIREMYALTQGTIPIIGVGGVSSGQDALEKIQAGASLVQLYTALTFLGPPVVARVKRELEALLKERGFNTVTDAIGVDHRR
test readout: IC50

For orientation, consider the following solved cases.
{"columns": ["compound", "test readout", "result"],
 "data": [
  ["Cc1c(Cc2ccc(C(F)(F)F)nc2)c[nH]c1C(=O)NC(C)c1cn[nH]c1 (centres unmarked)", "IC50", "> 100 µM"],
  ["Cc1cc(C(C)NC(=O)c2[nH]cc(Cc3ccc(C(F)(F)F)nc3)c2C)no1 (single isomer, unassigned)", "IC50", "> 100 µM"]
]}

Task: Fill in IC50 for Cc1c(C2(c3ccc(C(F)(F)F)nc3)CC2)c[nH]c1C(=O)NC(C)c1cc(C(N)=O)[nH]n1 (centres unmarked) tested with Mouse DHODH (Mus musculus (Mouse), UniProt O35435).
Result: > 100 µM

Task: Fill in IC50 for Cc1c(Cc2ccc(C(F)(F)F)nc2)c[nH]c1C(=O)NC(C)c1cnn(C)c1 (single isomer, unassigned) tested with Mouse DHODH (Mus musculus (Mouse), UniProt O35435).
Result: > 100 µM

Task: Fill in IC50 for Cc1c(C2(c3ccc(C(F)(F)F)nc3)CC2)c[nH]c1C(=O)NC(C)c1nc[nH]n1 (single isomer, unassigned) tested with Mouse DHODH (Mus musculus (Mouse), UniProt O35435).
Result: > 100 µM
